assay.target: recombinant human FGFR2 cytoplasmic domain (amino acids 403-822) (Homo sapiens (Human), UniProt P21802)
Sequence (P21802 402-821): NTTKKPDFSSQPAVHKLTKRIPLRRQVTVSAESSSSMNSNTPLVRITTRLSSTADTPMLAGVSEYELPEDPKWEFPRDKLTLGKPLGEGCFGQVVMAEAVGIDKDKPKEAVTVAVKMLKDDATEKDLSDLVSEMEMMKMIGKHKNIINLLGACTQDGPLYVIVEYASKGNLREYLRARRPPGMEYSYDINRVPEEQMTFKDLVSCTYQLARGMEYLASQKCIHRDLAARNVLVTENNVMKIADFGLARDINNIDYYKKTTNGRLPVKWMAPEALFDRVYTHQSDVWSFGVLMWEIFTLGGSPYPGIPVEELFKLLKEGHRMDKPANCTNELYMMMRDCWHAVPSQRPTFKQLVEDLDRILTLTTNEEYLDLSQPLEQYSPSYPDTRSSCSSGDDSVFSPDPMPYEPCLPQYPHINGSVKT
assay.procedure: FGFR2 enzyme activity assay (LanthaScreen TR-FRET)
condition.info: 15 μM ATP, 20 min incubation at 22° C., average of multiple determinations if made, read-out: FGFR2 Enz FRET IC50
Items are presented alongside their recorded log10(IC50).
measured.endpoint: log10(IC50) (log10 of the value in nM)

> print(dat)
                                item.smiles  assay.value
1  C=CC(=O)N1CCC(C(=O)N2CC(n3cc(-c4cc(OC)c5c(C#N)cnn5c4)cn3)C2)CC1         1.15
2  C=CC(=O)N1CCN(c2cccc(-n3cc(-c4cc(OC)c5c(C#N)cnn5c4)cn3)c2)CC1         1.11
3  COc1cc(-c2ccc(N3CCN(C(=O)C4(F)CN(C(=O)/C=C/CN(C)C)C4)CC3)nc2C)cn2ncc(C#N)c12         1.70
4  C=CC(=O)N1CCC(NC(=O)c2ccc(-c3cc(OC)c4c(C#N)cnn4c3)cc2)CC1         1.18
5  C=CC(=O)N1CC(C(=O)N2CCN(c3ccc(-c4cc(OC)c5c(C#N)cnn5c4)cc3)CC2)C1         0.70
6  COc1cc(-c2cnn(C3CCN(C(=O)C4CN(C(=O)C5=CCC5)C4)CC3)c2)cn2ncc(C#N)c12         0.60
7  C=CC(=O)N1CCC[C@@H](C(=O)N2CCC(n3cc(-c4cc(OC)c5c(C#N)cnn5c4)cn3)CC2)C1         0.85

Reference source for all entries: patent US12180207B2
